Where these numbers come from: paper PMC10821124

Tested on: human normal cells HGF, HPC, HPLF
method_summary: Cytotoxicity, average over the three human normal cells
Format: cell-based
stated_conditions: average of HGF, read-out: AVE CC50, human normal cells
Could you please report measured CC50 for the items listed next?
Answers are plain numbers, in µM.

# compound, result_number
rows = [
    ("N[C@@H](Cc1ccc(N(CCCl)CCCl)cc1)C(=O)O [Melphalan, reference compound]", 67.3),
]

Kindly consider the entry below.
Report CC50 for O=C1/C(=C/c2ccc(Cl)cc2)CN(C(=O)C(=O)N2C/C(=C\c3ccc(Cl)cc3)C(=O)/C(=C/c3ccc(Cl)cc3)C2)C/C1=C\c1ccc(Cl)cc1 [Compound 2c] please.
74.3

====

Tested on: human promyelocytic leukemia HL-60 cells
method_summary: Cytotoxicity, MTT method, HL-60 cells
Assay type: cell-based
stated_conditions: average CC50 non-malignant cells / CC50 HL-60
value_kind: SI (selectivity index) HL-60

# batch: return SI (selectivity index) HL-60 for each of the 3 compounds below
1. O=C1/C(=C/c2ccc(Cl)cc2)CN(C(=O)C(=O)N2C/C(=C\c3ccc(Cl)cc3)C(=O)/C(=C/c3ccc(Cl)cc3)C2)C/C1=C\c1ccc(Cl)cc1 [Compound 2c]
2. COc1ccc(/C=C2\CN(C(=O)C(=O)N3C/C(=C\c4ccc(OC)cc4)C(=O)/C(=C/c4ccc(OC)cc4)C3)C/C(=C\c3ccc(OC)cc3)C2=O)cc1 [Compound 2h]
3. O=C1/C(=C/c2ccc(Cl)c(Cl)c2)CN(C(=O)CC(=O)N2C/C(=C\c3ccc(Cl)c(Cl)c3)C(=O)/C(=C/c3ccc(Cl)c(Cl)c3)C2)C/C1=C\c1ccc(Cl)c(Cl)c1 [Compound 3d]

1: 16.9; 2: >5.45; 3: >1.54

====

Test system: human oral squamous cell carcinoma HSC-4 cells
method_summary: Cytotoxicity, MTT method, HSC-4 cells
Format: cell-based
stated_conditions: Homo sapiens, HSC-4; 48 h, MTT, mean ± SD; read-out: CC50 HSC-4
value_kind: CC50

Examples from the recorded data:
# compound, value_kind, result
measured = [
    ("O=C1/C(=C/c2ccc(F)cc2)CN(C(=O)CC(=O)N2C/C(=C\\c3ccc(F)cc3)C(=O)/C(=C/c3ccc(F)cc3)C2)C/C1=C\\c1ccc(F)cc1", "CC50", "0.023 µM"),
    ("Cc1ccc(/C=C2\\CN(C(=O)CC(=O)N3C/C(=C\\c4ccc(C)cc4)C(=O)/C(=C/c4ccc(C)cc4)C3)C/C(=C\\c3ccc(C)cc3)C2=O)cc1", "CC50", "1.9 µM"),
    ("O=C1/C(=C/c2ccccc2)CN(CCCN2C/C(=C\\c3ccccc3)C(=O)/C(=C/c3ccccc3)C2)C/C1=C\\c1ccccc1", "CC50", "0.083 µM"),
    ("COc1ccc(/C=C2\\CN(C(=O)C(=O)N3C/C(=C\\c4ccc(OC)c(OC)c4)C(=O)/C(=C/c4ccc(OC)c(OC)c4)C3)C/C(=C\\c3ccc(OC)c(OC)c3)C2=O)cc1OC", "CC50", "0.16 µM"),
    ("O=C1/C(=C/c2ccc(Cl)c(Cl)c2)CN(C(=O)CC(=O)N2C/C(=C\\c3ccc(Cl)c(Cl)c3)C(=O)/C(=C/c3ccc(Cl)c(Cl)c3)C2)C/C1=C\\c1ccc(Cl)c(Cl)c1", "CC50", "79 µM"),
    ("O=C1/C(=C/c2ccc(Cl)cc2)CN(C(=O)C(=O)N2C/C(=C\\c3ccc(Cl)cc3)C(=O)/C(=C/c3ccc(Cl)cc3)C2)C/C1=C\\c1ccc(Cl)cc1", "CC50", "6.7 µM"),
]

Below are 5 compounds. Give each one its CC50.
1. COc1cc(/C=C2\CN(C(=O)CC(=O)N3C/C(=C\c4cc(OC)c(OC)c(OC)c4)C(=O)/C(=C/c4cc(OC)c(OC)c(OC)c4)C3)C/C(=C\c3cc(OC)c(OC)c(OC)c3)C2=O)cc(OC)c1OC
2. COc1ccc(/C=C2\CN(C(=O)C(=O)N3C/C(=C\c4ccc(OC)cc4)C(=O)/C(=C/c4ccc(OC)cc4)C3)C/C(=C\c3ccc(OC)cc3)C2=O)cc1
3. O=C1/C(=C/c2ccccc2)CN(C(=O)C(=O)N2C/C(=C\c3ccccc3)C(=O)/C(=C/c3ccccc3)C2)C/C1=C\c1ccccc1
4. COc1cc(/C=C/C(=O)CC(=O)/C=C/c2ccc(O)c(OC)c2)ccc1O [Curcumin, reference compound]
5. O=C1/C(=C/c2ccccc2)CN(C(=O)CC(=O)N2C/C(=C\c3ccccc3)C(=O)/C(=C/c3ccccc3)C2)C/C1=C\c1ccccc1

0.038 µM
9.6 µM
0.2 µM
14 µM
0.084 µM

Below is a list of compounds. For each, state its recorded CC50.
1. CN(C)c1ccc(/C=C2\CN(C(=O)C(=O)N3C/C(=C\c4ccc(N(C)C)cc4)C(=O)/C(=C/c4ccc(N(C)C)cc4)C3)C/C(=C\c3ccc(N(C)C)cc3)C2=O)cc1
2. O=C1/C(=C/c2ccc(Cl)c(Cl)c2)CN(C(=O)C(=O)N2C/C(=C\c3ccc(Cl)c(Cl)c3)C(=O)/C(=C/c3ccc(Cl)c(Cl)c3)C2)C/C1=C\c1ccc(Cl)c(Cl)c1

> 100 µM
6.4 µM
